- Tested system: T1, human CD71 extracellular domain (human, UniProt P02786 89-760)
- T1 construct: also called hCD71; human CD71-ECD
- T1 sequence (P02786 89-760): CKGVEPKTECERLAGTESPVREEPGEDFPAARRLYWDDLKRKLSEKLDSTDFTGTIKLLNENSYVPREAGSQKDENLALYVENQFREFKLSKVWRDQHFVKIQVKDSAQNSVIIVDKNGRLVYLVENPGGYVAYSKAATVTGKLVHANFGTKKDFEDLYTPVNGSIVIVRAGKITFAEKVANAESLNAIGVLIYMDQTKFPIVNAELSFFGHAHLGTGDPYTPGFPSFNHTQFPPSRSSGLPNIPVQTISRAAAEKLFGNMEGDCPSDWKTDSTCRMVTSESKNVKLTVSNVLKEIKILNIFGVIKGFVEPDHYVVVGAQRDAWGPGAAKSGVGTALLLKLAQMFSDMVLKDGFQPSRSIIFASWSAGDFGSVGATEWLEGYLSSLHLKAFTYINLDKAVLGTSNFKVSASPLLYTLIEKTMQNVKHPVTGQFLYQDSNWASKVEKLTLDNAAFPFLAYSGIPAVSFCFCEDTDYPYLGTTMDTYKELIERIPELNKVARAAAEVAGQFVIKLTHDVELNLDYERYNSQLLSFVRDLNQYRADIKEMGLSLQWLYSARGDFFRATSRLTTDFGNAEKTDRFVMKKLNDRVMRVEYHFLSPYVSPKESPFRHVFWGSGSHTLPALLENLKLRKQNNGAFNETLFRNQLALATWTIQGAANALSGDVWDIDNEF
- Protocol description: primary ELISA, luminescence; note: test concentration or dose not given here
Quantity: RLU (RLU)
Just the number please, in RLU, no unit attached.

Past entries and their recorded results:
[
  {
    "Binder": "CD71-binding FN3 domain of SEQ ID NO: 232 (designed binder) MSLPAPKNLVVSRVTEDSARLSWTAPDAAFDSFEISYWEHTFNGEAIILFVPGSERSYDLTGLKPGTEYVVFIGGVKGGVWSVPLSAIFTT",
    "RLU / RLU": "3.58e+06"
  },
  {
    "Binder": "CD71-binding FN3 domain of SEQ ID NO: 226 (designed binder) MSLPAPKNLVISRVTEDSARLSWTAPDAAFDSFEIGYFENLYLGEAIVLTVPGSERSYDLTGLKPGTEYWVAIGGVKGGLWSLPLSAIFTT",
    "RLU / RLU": "3.1e+06"
  }
]

The record that follows has no RLU shown yet.
**Q:** For the binder CD71-binding FN3 domain of SEQ ID NO: 229 (designed binder) MSLPAPKNLVVSRVTEDSARLSWTAPDAAFDSFSIMYAEQKVNGEAIVLTVPGSERSYDLTGLKPGTEYLVLIWGVKGGGRSLPLSAIFTT , what RLU is on record?
**A:** 3.42e+06
